B1: P2RY14 (parent)
chain: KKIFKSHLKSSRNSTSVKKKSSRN

Variants of: B1
Experimental protocol: protein stability index of a GFP-peptide fusion (GPS, HEK-293T) (PSI 1-6); higher = more stable;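 also: lentivirally expressed fusions sorted by FACS into six bins by GFP to DsRed ratio, PSI derived from sequencing read proportions per bin multiplied by bin number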
Experimental setup: c terminus: a fixed tail appended
Measured property: protein stability index

> print(dat)
    mutation.notation        measured.property  recorded.number
 1                S6H  protein stability index              3.9
 2               R12S  protein stability index             3.94
 3                K9Q  protein stability index             4.04
 4               K19H  protein stability index             3.99
 5               S21F  protein stability index             3.73
 6                K5P  protein stability index             4.18
 7               S11Q  protein stability index             4.31
 8               S21H  protein stability index             4.22
 9               V17F  protein stability index             3.97
10                K9Y  protein stability index             3.67
